Data origin, for the record: ChEMBL document CHEMBL3044736

Tested on: Aspergillus clavatus
Test: Antimicrobial activity against Aspergillus clavatus MTCC 1323 assessed as diameter of growth inhibition zone at 25 ug/ml after 48-96 hr by agar cup diffusion method
Format: functional
Conditions: read-out: DIZ
Recorded zone of inhibition at 25 µg/mL for the following molecules

# compound, measure_unit, zone of inhibition at 25 µg/mL
measured = [
    ("O=C(/C=C/c1ccc(O)cc1)C1C(=O)NC(=S)NC1=O", "mm", 21),
    ("O=C(/C=C/c1ccc([N+](=O)[O-])cc1)C1C(=O)NC(=S)NC1=O", "mm", 20),
    ("COc1ccc(/C=C/C(=O)C2C(=O)NC(=S)NC2=O)cc1", "mm", 20),
    ("Cc1ccc(/C=C/C(=O)C2C(=O)NC(=S)NC2=O)cc1", "mm", 21),
    ("O=C(/C=C/c1ccc(Cl)cc1)C1C(=O)NC(=S)NC1=O", "mm", 18),
    ("O=C(/C=C/c1ccccc1)C1C(=O)NC(=S)NC1=O", "mm", 18),
    ("COc1ccc(/C=C/C(=O)C2C(=O)NC(=S)NC2=O)cc1OC", "mm", 18),
    ("O=C(/C=C/c1cccc([N+](=O)[O-])c1)C1C(=O)NC(=S)NC1=O", "mm", 20),
    ("O=C(/C=C/c1ccccc1O)C1C(=O)NC(=S)NC1=O", "mm", 18),
    ("O=C(/C=C/c1ccccc1Cl)C1C(=O)NC(=S)NC1=O", "mm", 18),
    ("O=C(/C=C/c1ccc2ccccc2c1)C1C(=O)NC(=S)NC1=O", "mm", 18),
]

###

Test system: Penicillium
Assay: Antimicrobial activity against Penicillium wild strain assessed as diameter of growth inhibition zone at 100 ug/ml after 48-96 hr by agar cup diffusion method
Format: functional
Details: read-out: DIZ
measurement_kind: zone of inhibition at 100 µg/mL

# compound, reported_measurement
records = [
    ("O=C(/C=C/c1ccc([N+](=O)[O-])cc1)C1C(=O)NC(=S)NC1=O", "23 mm"),
    ("O=C(/C=C/c1ccc(O)cc1)C1C(=O)NC(=S)NC1=O", "22 mm"),
    ("COc1ccc(/C=C/C(=O)C2C(=O)NC(=S)NC2=O)cc1", "23 mm"),
    ("Cc1ccc(/C=C/C(=O)C2C(=O)NC(=S)NC2=O)cc1", "19 mm"),
    ("O=C(/C=C/c1ccccc1)C1C(=O)NC(=S)NC1=O", "22 mm"),
    ("COc1ccc(/C=C/C(=O)C2C(=O)NC(=S)NC2=O)cc1OC", "22 mm"),
    ("O=C(/C=C/c1ccccc1Cl)C1C(=O)NC(=S)NC1=O", "21 mm"),
    ("O=C(/C=C/c1ccccc1O)C1C(=O)NC(=S)NC1=O", "22 mm"),
    ("O=C(/C=C/c1ccc2ccccc2c1)C1C(=O)NC(=S)NC1=O", "21 mm"),
    ("O=C(/C=C/c1cccc([N+](=O)[O-])c1)C1C(=O)NC(=S)NC1=O", "21 mm"),
    ("O=C(/C=C/c1ccc(Cl)cc1)C1C(=O)NC(=S)NC1=O", "23 mm"),
]

###

Test system: Aspergillus clavatus
Experiment: Antimicrobial activity against Aspergillus clavatus MTCC 1323 assessed as diameter of growth inhibition zone at 250 ug/ml after 48-96 hr by agar cup diffusion method
Format: functional
Details: read-out: DIZ
Recorded zone of inhibition at 250 µg/mL for the following compounds
measurement_kind: zone of inhibition at 250 µg/mL (mm)

# compound, reported_measurement
rows = [
    ("Cc1ccc(/C=C/C(=O)C2C(=O)NC(=S)NC2=O)cc1", 25),
    ("COc1ccc(/C=C/C(=O)C2C(=O)NC(=S)NC2=O)cc1", 24),
    ("O=C(/C=C/c1ccc(O)cc1)C1C(=O)NC(=S)NC1=O", 24),
    ("COc1ccc(/C=C/C(=O)C2C(=O)NC(=S)NC2=O)cc1OC", 23),
    ("O=C(/C=C/c1ccc(Cl)cc1)C1C(=O)NC(=S)NC1=O", 22),
    ("O=C(/C=C/c1ccccc1)C1C(=O)NC(=S)NC1=O", 24),
    ("O=C(/C=C/c1ccc2ccccc2c1)C1C(=O)NC(=S)NC1=O", 25),
    ("O=C(/C=C/c1ccccc1O)C1C(=O)NC(=S)NC1=O", 22),
    ("O=C(/C=C/c1ccc([N+](=O)[O-])cc1)C1C(=O)NC(=S)NC1=O", 24),
    ("O=C(/C=C/c1cccc([N+](=O)[O-])c1)C1C(=O)NC(=S)NC1=O", 24),
    ("O=C(/C=C/c1ccccc1Cl)C1C(=O)NC(=S)NC1=O", 22),
]
